Documented inhibition across a set of compounds
Test: inhibitors of Sendai virus-induced IRF3 signaling, primary screen, TLR/RLR signaling modifier project, cell-based, Sendai virus stimulus, luciferase, 10K MLSCN set (AID 602276);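 note: firefly luciferase from ISG56 promoter only with Renilla not read in this screen; 0% = Sendai virus plus DMSO and 100% = medium plus DMSO without virus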
Conditions: HEK293 RL24 IRF3 luciferase reporter, at 10 µM, stronger effect = higher value
observedProperty: inhibition (%)

[[record]]
compound = "CC(=O)OCC(=O)[C@@]1(O)[C@H](C)C[C@H]2[C@@H]3CCC4=CC(=O)C=C[C@]4(C)[C@@]3(F)[C@@H](O)C[C@@]21C"
reportedmeasurement = 14.1

[[record]]
compound = "CC(NC(=O)Nc1nccs1)(C(F)(F)F)C(F)(F)F"
reportedmeasurement = 1.15

[[record]]
compound = "CCC(NC(=O)Nc1cc(OC)c(OC)c(OC)c1)(C(F)(F)F)C(F)(F)F"
reportedmeasurement = 20

[[record]]
compound = "Nc1ccc(S(=O)(=O)Nc2ncccn2)cc1"
reportedmeasurement = 15.1

[[record]]
compound = "c1ccc(-c2nnc(OCCN3CCOCC3)c3ccccc23)cc1"
reportedmeasurement = 15.1

[[record]]
compound = "CCOC(=O)c1c(C(F)(F)C(F)(F)C(F)(F)C(F)(F)F)n[nH]c1C"
reportedmeasurement = 17.2

[[record]]
compound = "Cc1nnc2n(-c3ccccc3)c(=O)c3c4c(sc3n12)CCCC4"
reportedmeasurement = -14.4

[[record]]
compound = "NCc1ccc(S(N)(=O)=O)cc1"
reportedmeasurement = 14

[[record]]
compound = "c1ccc(CN2CCN(c3ncnc4c3[nH]c3ccccc34)CC2)cc1"
reportedmeasurement = 1.57

[[record]]
compound = "Cc1nc2c(c(=O)n1CC1CCCO1)c1nc3ccccc3nc1n2CC(C)C (centres undefined)"
reportedmeasurement = 20.9

[[record]]
compound = "COc1ccc2nc(S(=O)Cc3ncc(C)c(OC)c3C)[nH]c2c1 (centres undefined)"
reportedmeasurement = -9.53

[[record]]
compound = "CCCCOc1ccc(C(=O)CCN2CCCCC2)cc1"
reportedmeasurement = 4.68

[[record]]
compound = "CC1(C)Cc2c(sc3c2C2=NCCN2C=N3)CS1"
reportedmeasurement = 0.61

[[record]]
compound = "O=[N+]([O-])c1cccc2cn[nH]c12"
reportedmeasurement = 15.9

[[record]]
compound = "Cc1cccc(N(C)C(=S)Oc2ccc3ccccc3c2)c1"
reportedmeasurement = -6.47

[[record]]
compound = "Cc1c(O)c(CN2CCCCC2)cc2c3c(c(=O)oc12)CCC3"
reportedmeasurement = 12.6

[[record]]
compound = "CN(C)CCOc1ccccc1Cc1ccccc1"
reportedmeasurement = 17.7

[[record]]
compound = "CC(=O)Nc1ccc(S(=O)(=O)Nc2nc3n(n2)C(c2ccccc2)CC(=O)N3)cc1 (centres undefined)"
reportedmeasurement = 16.4

[[record]]
compound = "CCNC(=O)N(C(=O)NCC)n1c(C)nnc1C"
reportedmeasurement = 9.47

[[record]]
compound = "Cc1cccc(OCC(=O)N2CCC(N3CCCCCC3)CC2)c1"
reportedmeasurement = -0.464

[[record]]
compound = "CCCSc1ccc2nc(NC(=O)OC)[nH]c2c1"
reportedmeasurement = 26.9

[[record]]
compound = "COC(=O)C1=C(C)NC(C)=C(C(=O)OC)C1c1ccccc1[N+](=O)[O-]"
reportedmeasurement = 12.4

[[record]]
compound = "CC(C)Sc1nc(N2CCCC2)c2c(c1C#N)CC(C)(C)OC2"
reportedmeasurement = 14

[[record]]
compound = "CCc1ccccc1NC(=O)CSC1=C(C#N)C(c2ccc(O)c(OC)c2)C2=C(CCCC2=O)N1 (centres undefined)"
reportedmeasurement = 18.6

[[record]]
compound = "Cc1ccc(-n2ncc3c(N4CCN(c5ccccc5)CC4)ncnc32)c(C)c1"
reportedmeasurement = 20.5

[[record]]
compound = "CCOC(=O)c1[nH]c2ccc(Br)cc2c1NC(=O)CNC"
reportedmeasurement = 18.6

[[record]]
compound = "Cc1nc(SC2C=CS(=O)(=O)C2)n[nH]1 (centres undefined)"
reportedmeasurement = 14.6

[[record]]
compound = "Cc1ccccc1C(OCCN(C)C)c1ccccc1 (centres undefined)"
reportedmeasurement = 22.3

[[record]]
compound = "OC(CCCN1CCC(O)(c2ccc(Cl)cc2)CC1)c1ccc(F)cc1 (centres undefined)"
reportedmeasurement = 12.8

[[record]]
compound = "COc1cccc(N2C(=O)C(O)=C(C(C)=O)C2c2ccc(OC)c(OC)c2)c1 (centres undefined)"
reportedmeasurement = 5.42

[[record]]
compound = "C[C@]12CC[C@H]3[C@@H](CCC4=CC(=O)CC[C@@]43C)[C@@H]1CC[C@@H]2C(=O)CO"
reportedmeasurement = 1.11

[[record]]
compound = "CN(C)C(CN1C(=O)C2CC=CCC2C1=O)c1cn(C)c2ccccc12 (centres undefined)"
reportedmeasurement = 24.3

[[record]]
compound = "O=C(CCCN1C(=O)c2ccccc2C1=O)N1CCC(c2ccccc2)C1 (centres undefined)"
reportedmeasurement = 10.8

[[record]]
compound = "CC[N+](C)(C)c1cccc(O)c1"
reportedmeasurement = 16.5

[[record]]
compound = "CC(=O)[C@H]1[C@H](C#N)C[C@H]2[C@@H]3CC=C4C[C@@H](O)CC[C@]4(C)[C@H]3CC[C@@]21C"
reportedmeasurement = 10.7

[[record]]
compound = "Cc1ccc(/C(O)=C2/C(=O)C(=O)N(Cc3ccco3)C2c2cccs2)cc1 (centres undefined)"
reportedmeasurement = -8

[[record]]
compound = "CC(NC(=O)NCCCC(=O)O)(C(F)(F)F)C(F)(F)F"
reportedmeasurement = 18.9

[[record]]
compound = "COC(=O)C1=C(N)Oc2cc(C)[nH]c(=O)c2C1c1ccncc1 (centres undefined)"
reportedmeasurement = 22.8

[[record]]
compound = "COc1cc2nc(N3CCN(C(=O)c4ccco4)CC3)nc(N)c2cc1OC"
reportedmeasurement = -4.12

[[record]]
compound = "C=CCn1cnc2c(c1=O)c1nc3ccccc3nc1n2-c1ccc(C)cc1"
reportedmeasurement = 15.3

[[record]]
compound = "CC(O)c1n(C)c(Cl)c[n+]1C (centres undefined)"
reportedmeasurement = 17

[[record]]
compound = "CCOC(=O)C1=C(N)c2ccccc2CC1C(C)C (centres undefined)"
reportedmeasurement = 17.7

[[record]]
compound = "COc1ccccc1NC(=O)C1=C(C)NC(SCC(=O)c2ccc(C)cc2)=C(C#N)C1c1ccco1 (centres undefined)"
reportedmeasurement = -17.3

[[record]]
compound = "CC[C@H](C)C(=O)O[C@H]1C[C@@H](C)C=C2C=C[C@H](C)[C@H](CC[C@@H]3C[C@@H](O)CC(=O)O3)[C@H]21"
reportedmeasurement = -4.78

